assay: Cytotoxicity against human UACC257 cells assessed as cell growth at 10 uM after 48 hrs by SRB assay; type: functional; conditions: UACC-257, 48 h, read-out: Activity
property: growth at 10 µM (%)

INSERT INTO assay_data (structure_smiles_string, val) VALUES
  ('Cc1ccc(-c2csc3nc(N4NC(=O)CC4=O)cn23)cc1', 109),
  ('O=C1CC(=O)N(c2cn3c(-c4ccccc4)csc3n2)N1', 97.6),
  ('O=C1CN2C(c3ccc(Cl)cc3)=CSC2=N1', 96.3),
  ('CC1=NN(c2cn3c(-c4ccc(C)cc4)csc3n2)C(=O)C1', 100),
  ('Cc1ccc(-c2csc3nc(-n4nc(C)cc4C)cn23)cc1', 108),
  ('Cc1cc(C)n(-c2cn3c(-c4ccccc4)csc3n2)n1', 105),
  ('O=C1CN2C(c3ccccc3)=CSC2=N1', 103),
  ('Cc1cc(C)n(-c2cn3c(-c4ccc(Cl)cc4)csc3n2)n1', 104),
  ('CC1=NN(c2cn3c(-c4ccccc4)csc3n2)C(=O)C1', 102),
  ('O=C1CC(=O)N(c2cn3c(-c4ccc(Cl)cc4)csc3n2)N1', 103),
  ('CC1=NN(c2cn3c(-c4ccc(Cl)cc4)csc3n2)C(=O)C1', 94.9);
